Assay summary: Antiproliferative activity against human THLE-3 cells assessed as inhibition of cell proliferation incubated for 24 hrs followed by 72 hrs of compound-free incubation by Sulforhodamine B assay
Type: toxicity, cell-based
Measured metric: IC50 at 24 h

get_value(item= "O=c1[nH]c(-c2cccc(F)c2)cc2cc(F)ccc12" , readout=IC50 at 24 h) returns > 25 µM
